# System: ryegrass, Italian (Lolium multiflorum)
# measurement.description: Test A postemergence, Italian ryegrass
# Type: in vivo
# measurement.parameters: 125 g ai/ha, 0 to 100 scale, 0 no effect, 100 complete control

molecule | system.tested | Plant response rating, Ryegrass, Italian
C[C@@H](Nc1ncc(C(F)(F)F)c(N)n1)c1cc2c(F)ccc(F)c2s1 | ryegrass, Italian (Lolium multiflorum) | 40
C[C@H](Nc1ncc(C(F)(F)F)c(N)n1)c1csc2ccccc12 | ryegrass, Italian (Lolium multiflorum) | 0
Cc1ccc2c([C@H](Nc3ncc(C(F)(F)F)c(N)n3)C3CC3)coc2c1 | ryegrass, Italian (Lolium multiflorum) | 30
C[C@H](Nc1nc(N)c(C(F)(F)F)c(C(F)(F)F)n1)C1Cc2ccccc2C1 | ryegrass, Italian (Lolium multiflorum) | 0
Nc1nc(NC(c2cc3ccccc3o2)C2CC2)ncc1C(F)(F)F (stereo not drawn) [Compound 89] | ryegrass, Italian (Lolium multiflorum) | 0
Cc1nc(NC(C)c2cc3ccccc3s2)nc(N)c1C(F)(F)F (stereo not drawn) | ryegrass, Italian (Lolium multiflorum) | 100
C[C@@H](Nc1ncc(C(F)(F)F)c(N)n1)c1csc2ccccc12 | ryegrass, Italian (Lolium multiflorum) | 20
CC(=O)c1cnc(NC(C)c2cc3ccccc3s2)nc1N (stereo not drawn) | ryegrass, Italian (Lolium multiflorum) | 0
Cc1cccc2oc(C(C)Nc3ncc(C(F)(F)F)c(N)n3)cc12 (stereo not drawn) | ryegrass, Italian (Lolium multiflorum) | 60
CC[C@@H](Nc1ncc(C(F)(F)F)c(N)n1)c1cc2ccc(F)cc2s1 | ryegrass, Italian (Lolium multiflorum) | 0
C[C@H](Nc1ncc(C(F)(F)F)c(N)n1)c1cc2cccc(F)c2o1 | ryegrass, Italian (Lolium multiflorum) | 0
CC[C@H](Nc1ncc(C(F)(F)F)c(N)n1)c1cc2ccc(F)cc2o1 | ryegrass, Italian (Lolium multiflorum) | 0
C[C@@H](Nc1ncc(C(F)(F)F)c(N)n1)c1cc2ccccc2n1C | ryegrass, Italian (Lolium multiflorum) | 0
Nc1nc(N[C@@H](c2coc3ccccc23)C2CC2)ncc1C(F)(F)F | ryegrass, Italian (Lolium multiflorum) | 60
C[C@@H](Nc1nc(N)c(C(F)(F)F)c(C(F)(F)F)n1)c1cc2ccccc2o1 | ryegrass, Italian (Lolium multiflorum) | 0
C[C@H](Nc1nc(N)c(C(F)(F)F)c(C(F)(F)F)n1)c1cc2ccccc2o1 | ryegrass, Italian (Lolium multiflorum) | 0
CC[C@H](Nc1ncc(C(F)(F)F)c(N)n1)c1cc2ccccc2s1 | ryegrass, Italian (Lolium multiflorum) | 0
Nc1nc(NC(c2cc3ccccc3o2)C2CC2)ncc1C(F)(F)F (stereo not drawn) [Compound 88] | ryegrass, Italian (Lolium multiflorum) | 50
Nc1nc(NC(c2cc3ccccc3s2)C2CC2)ncc1C(F)(F)F (racemic) | ryegrass, Italian (Lolium multiflorum) | 50
CC(C)[C@@H](Nc1ncc(C(F)(F)F)c(N)n1)c1cc2ccccc2s1 | ryegrass, Italian (Lolium multiflorum) | 30
CC(F)c1nc(N[C@H](C)c2cc3ccccc3o2)nc(N)c1C(F)(F)F (stereo partly drawn) | ryegrass, Italian (Lolium multiflorum) | 0
CC[C@H](Nc1ncc(C(F)(F)F)c(N)n1)c1cc2ccc(F)cc2s1 | ryegrass, Italian (Lolium multiflorum) | 0
CC[C@@H](Nc1ncc(C(F)(F)F)c(N)n1)c1coc2ccccc12 | ryegrass, Italian (Lolium multiflorum) | 0
CC(Nc1nc(N)c(C(F)(F)F)c(C(F)(F)F)n1)c1cc2ccccc2o1 (racemic) | ryegrass, Italian (Lolium multiflorum) | 0
CC(Nc1ncc(C(F)(F)F)c(N)n1)c1cc2ccc(Cl)cc2s1 (racemic) | ryegrass, Italian (Lolium multiflorum) | 0
C[C@@H](Nc1nc(N)c(C(F)(F)F)c(C(F)F)n1)c1cc2ccccc2s1 | ryegrass, Italian (Lolium multiflorum) | 0
Nc1nc(N[C@H](c2coc3ccccc23)C2CC2)ncc1C(F)(F)F | ryegrass, Italian (Lolium multiflorum) | 0

---

# System: pigweed (Amaranthus retroflexus)
# measurement.description: Test A preemergence, pigweed
# Type: in vivo
# measurement.parameters: 125 g ai/ha, 0 to 100 scale, 0 is no effect, 100 is complete control
Documented Pigweed plant response rating across a set of compounds

compound | system.tested | Pigweed plant response rating
CC(Nc1ncc(C(F)(F)F)c(N)n1)c1coc2cc(Cl)ccc12 (racemic) | pigweed (Amaranthus retroflexus) | 40
CC[C@@H](Nc1ncc(C(F)(F)F)c(N)n1)c1cc2ccc(F)cc2s1 | pigweed (Amaranthus retroflexus) | 60
CC(Nc1ncc(C(F)(F)F)c(N)n1)c1coc2cccc(F)c12 (racemic) | pigweed (Amaranthus retroflexus) | 70
CC(Nc1nc(N)c(C(F)(F)F)c(C(F)(F)F)n1)C1Cc2ccccc2C1 (racemic) | pigweed (Amaranthus retroflexus) | 0

---

# Test system: corn (Zea mays)
# measurement.description: Test A postemergence, corn
# Assay type: in vivo
# measurement.parameters: 31 g ai/ha, 0 to 100 scale, 0 no effect, 100 complete control
Documented Plant response rating, Corn across a set of compounds
recorded.endpoint: Plant response rating, Corn

compound | system.tested | recorded.endpoint | val
C[C@@H](Nc1nc(N)c(C(F)(F)F)c(C(F)F)n1)c1cc2ccccc2o1 [Compound 111] | corn (Zea mays) | Plant response rating, Corn | 0
C[C@@H](Nc1ncc(C(F)(F)F)c(N)n1)c1cc2ccccc2[s+]1[O-] (stereo partly drawn) [Compound 113] | corn (Zea mays) | Plant response rating, Corn | 20
C[C@@H](Nc1ncc([S+](C)[O-])c(N)n1)c1cc2ccccc2s1 (stereo partly drawn) [Compound 110] | corn (Zea mays) | Plant response rating, Corn | 0
CC(F)c1nc(N[C@H](C)c2cc3ccccc3o2)nc(N)c1C(F)(F)F (stereo partly drawn) [Compound 112] | corn (Zea mays) | Plant response rating, Corn | 30
C[C@@H](Nc1nc(N)c(C(F)(F)F)c(C(F)F)n1)c1cc2ccccc2s1 [Compound 109] | corn (Zea mays) | Plant response rating, Corn | 0
CC(F)c1nc(N[C@H](C)c2cc3ccccc3s2)nc(N)c1C(F)(F)F (stereo partly drawn) [Compound 108] | corn (Zea mays) | Plant response rating, Corn | 0
C[C@@H](Nc1ncc(C(F)(F)F)c(N)n1)c1cc2c(Cl)cccc2s1 [Compound 116] | corn (Zea mays) | Plant response rating, Corn | 20
Cc1cccc2sc([C@@H](C)Nc3ncc(C(F)(F)F)c(N)n3)cc12 [Compound 115] | corn (Zea mays) | Plant response rating, Corn | 10
C[C@@H](Nc1ncc(C(F)(F)F)c(N)n1)c1cc2c(F)ccc(F)c2s1 [Compound 114] | corn (Zea mays) | Plant response rating, Corn | 10

---

# System: kochia (Kochia scoparia)
# measurement.description: Test A postemergence, kochia
# Assay type: in vivo
# measurement.parameters: 500 g ai/ha, 0 to 100 scale, 0 is no effect, 100 is complete control

chemical.structure | system.tested | Kochia plant response rating
C[C@@H](Nc1ncc(C(F)(F)F)c(N)n1)c1coc2ccccc12 | kochia (Kochia scoparia) | 90
C[C@@H](Nc1ncc(C(F)(F)F)c(N)n1)c1csc2ccccc12 | kochia (Kochia scoparia) | 90
CC[C@@H](Nc1ncc(C(F)(F)F)c(N)n1)c1cc2ccc(F)cc2s1 | kochia (Kochia scoparia) | 90

---

Documented Ryegrass, Italian plant response rating across a set of molecules
# System: ryegrass, Italian (Lolium multiflorum)
# measurement.description: Test A preemergence, Italian ryegrass
# Type: in vivo
# measurement.parameters: 500 g ai/ha, 0 to 100 scale, 0 is no effect, 100 is complete control

molecule | Ryegrass, Italian plant response rating
Nc1nc(NC(c2cc3ccccc3o2)C2CC2)ncc1C(F)(F)F (stereo not drawn) [Compound 88] | 100
CC(Nc1ncc(C(F)(F)F)c(N)n1)c1cc2c(Br)cccc2o1 (stereo not drawn) | 60
C[C@@H](Nc1ncc(C(F)(F)F)c(N)n1)c1coc2cc(Cl)ccc12 | 70
C[C@@H](Nc1nc(N)c(C(F)(F)F)c(C(F)(F)F)n1)c1cc2ccccc2s1 | 0
Cc1nc(NC(C)c2coc3ccccc23)nc(N)c1C(F)(F)F (stereo not drawn) | 30
CC(Nc1nc(N)c(C(F)(F)F)c(C(F)(F)F)n1)C1Cc2ccccc2C1 (racemic) | 0
C[C@@H](Nc1nc(N)c(C(F)(F)F)c(C(F)(F)F)n1)c1cc2ccccc2o1 | 0
Nc1nc(N[C@@H](c2coc3ccccc23)C2CC2)ncc1C(F)(F)F | 100
Nc1nc(N[C@H](c2coc3ccccc23)C2CC2)ncc1C(F)(F)F | 50
CC(Nc1ncc(C(F)(F)F)c(N)n1)c1cc2ccc(F)c(F)c2s1 (stereo not drawn) | 70
Cc1nc(NC(C)c2cc3ccccc3s2)nc(N)c1C(F)(F)F (stereo not drawn) | 90
C[C@H](Nc1ncc(C(F)(F)F)c(N)n1)c1cc2ccccc2n1C | 30
C[C@H](Nc1ncc(C(F)(F)F)c(N)n1)c1csc2ccccc12 | 0
CC(Nc1ncc(C(F)(F)F)c(N)n1)c1cc2ccc(Cl)cc2s1 (racemic) | 0
CC(Nc1ncc(C(F)(F)F)c(N)n1)c1coc2cccc(F)c12 (racemic) | 50
Nc1nc(NC(c2cc3ccccc3s2)C2CC2)ncc1C(F)(F)F (racemic) | 90
Cc1ccc2c([C@@H](Nc3ncc(C(F)(F)F)c(N)n3)C3CC3)coc2c1 | 30
C[C@H](Nc1ncc(C(F)(F)F)c(N)n1)c1cc2ccc(F)cc2s1 | 0
